# TARGET SYSTEM: T1, hu-CD74 antigen (R&D SYSTEMS catalog #3590-CD-050) (human, UniProt P04233-2 73-232, limits assumed)
# T1 construct: Bought antigen; also called rhCD74; human CD74
# T1 sequence (looked up): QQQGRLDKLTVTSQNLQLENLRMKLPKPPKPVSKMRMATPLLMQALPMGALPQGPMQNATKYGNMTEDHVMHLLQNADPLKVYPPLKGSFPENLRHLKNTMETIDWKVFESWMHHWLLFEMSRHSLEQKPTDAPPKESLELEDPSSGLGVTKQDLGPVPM
# EXPERIMENT DESCRIPTION: SPR (Biacore T200), captured on anti-human Fc, rhCD74 analyte
MEASURED ATTRIBUTE: kon (M⁻¹ s⁻¹)
Record the value in M⁻¹ s⁻¹, omitting the unit from your answer.

1337-A09 light chain paired with VH 1251-A06 (SEQ ID NO: 236) (Fab, V domains shown, 'in Fab format') VH: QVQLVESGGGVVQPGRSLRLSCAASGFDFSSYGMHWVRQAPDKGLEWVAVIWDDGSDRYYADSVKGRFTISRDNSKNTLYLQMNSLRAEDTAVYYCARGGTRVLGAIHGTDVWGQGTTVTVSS VL: DIQMTQSPSSLSASVGDRVTITCRASQGIGSWLAWYQQKPEKAPKSLIYAADRLQSGVPSRFSGSGSGTDFTLTISSLQPEDFATYYCQQYHTYPLTFGGGTKVEIK
994000

Consider the additional binder presented here.
Prompt: Please report the recorded kon for 1337-A07 light chain paired with VH 1251-A06 (SEQ ID NO: 236) (Fab, V domains shown, 'in Fab format') VH: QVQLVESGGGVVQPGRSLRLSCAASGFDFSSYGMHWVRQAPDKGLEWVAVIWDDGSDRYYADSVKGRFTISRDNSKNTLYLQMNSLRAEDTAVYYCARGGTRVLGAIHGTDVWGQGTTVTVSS VL: DIQMTQSPSSLSASVGDRVTITCRASQGISSWVAWYQQKPEKAPKSLIYGASRLQSGVPSRFSGSGSGTDFTLTISSLQPEDFATYYCQQYHTYPLTFGGGTKVEIK .
Response: 785000
